meta.source: PubChem BioAssay AID2595

Target: Lysosomal acid glucosylceramidase (Homo sapiens) (UniProt P04062)
Sequence (P04062 whole entry, looked up): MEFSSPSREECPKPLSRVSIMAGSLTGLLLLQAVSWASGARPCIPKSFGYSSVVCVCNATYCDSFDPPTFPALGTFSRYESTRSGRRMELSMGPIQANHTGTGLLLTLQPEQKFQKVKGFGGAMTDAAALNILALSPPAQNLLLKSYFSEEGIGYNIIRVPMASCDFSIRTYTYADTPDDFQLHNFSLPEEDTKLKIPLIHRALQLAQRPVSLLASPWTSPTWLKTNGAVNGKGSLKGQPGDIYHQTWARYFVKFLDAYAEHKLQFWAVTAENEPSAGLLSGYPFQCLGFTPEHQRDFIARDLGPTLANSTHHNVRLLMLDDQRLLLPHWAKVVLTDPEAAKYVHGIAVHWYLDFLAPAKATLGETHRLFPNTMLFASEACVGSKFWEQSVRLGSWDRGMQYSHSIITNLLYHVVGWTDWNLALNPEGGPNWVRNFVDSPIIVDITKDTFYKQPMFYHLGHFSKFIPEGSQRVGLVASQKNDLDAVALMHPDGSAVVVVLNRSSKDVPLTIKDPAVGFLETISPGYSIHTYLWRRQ
Experiment: qHTS Assay for Inhibitors and Activators of N370S glucocerebrosidase as a Potential Chaperone Treatment of Gaucher Disease: Purified Non-mutant Glucocerebrosidase
Details: purified wildtype GC, 4MU-beta-glucoside fluorescence, 40 min; series mostly up to 76.9 µM
Procedure: NIH Chemical Genomics Center [NCGC] NIH Molecular Libraries Probe Production Centers Network [MLPCN] […] NCGC Assay Protocol Summary: This is a fluorogenic enzyme assay with 4-methylumbelliferyl-beta-D-glucopyranoside as the substrate and purified wildtype glucocerebrosidase as the enzyme preparation. […] The AC50 values were determined from concentration-response data modeled with the standard Hill equation. […]
Results filed as inconclusive are left out. The source made the active and inactive calls. Calls follow the shape of the dose curve; as a rule, active = well fitted inhibition curve with a large enough effect; inconclusive = small, poorly fitted or top-dose-only effect, or effect the other way; inactive = flat fitted curve, though single readings scatter.
Possible outcomes: active, inactive

# CHEMICAL_STRUCTURE, LABEL_VALUE
rows = [
    ("Cc1ccc(-c2nc(N3CCN(S(=O)(=O)c4ccc(F)cc4)CC3)c3ccc(Cl)cc3n2)cc1", "inactive"),
    ("CC(C)(C)C(=O)OCCNc1nc(-c2ccccc2)nc2ccccc12", "active"),
    ("O=S(=O)(c1ccc(F)cc1)N1CCN(c2nc(-c3ccc(F)cc3)nc3cc(Cl)ccc23)CC1", "inactive"),
    ("O=S(=O)(c1ccc(F)cc1)N1CCN(c2nc(-c3cccc(Br)c3)nc3ccccc23)CC1", "inactive"),
    ("Cc1ccc(S(=O)(=O)N2CCN(c3nc(-c4ccc(F)cc4)nc4cc(Cl)ccc34)CC2)cc1", "inactive"),
    ("O=S(=O)(c1cccc(C(F)(F)F)c1)N1CCN(c2nc(-c3cccs3)nc3cc(Cl)ccc23)CC1", "inactive"),
    ("O=C(c1ccc2c(c1)OCCO2)N1CCN(c2nc(-c3cccs3)nc3ccccc23)CC1", "active"),
]

###

target: Lysosomal acid glucosylceramidase (Homo sapiens); experiment: qHTS Assay for Inhibitors and Activators of N370S glucocerebrosidase as a Potential Chaperone Treatment of Gaucher Disease: Purified Non-mutant Glucocerebrosidase; conditions: purified wildtype GC, 4MU-beta-glucoside fluorescence, 40 min; series mostly up to 76.9 µM
Results filed as inconclusive are left out. Calls of active or inactive are those of the source. Calls come from the whole dose curve; as a rule, active = well fitted inhibition curve with a large enough effect; inconclusive = small, poorly fitted or top-dose-only effect, or effect the other way; inactive = flat fitted curve, though single readings scatter.
Classes used: active, inactive

# CHEMICAL_STRUCTURE, LABEL_VALUE
rows = [
    ("O=S(=O)(c1ccccc1)N1CCN(c2nc(-c3ccc(F)cc3)nc3cc(Cl)ccc23)CC1", "inactive"),
    ("O=S(=O)(c1ccc(F)cc1)N1CCN(c2nc(-c3cccs3)nc3cc(Cl)ccc23)CC1", "inactive"),
    ("COc1cccc(S(=O)(=O)N2CCN(c3nc(-c4cccs4)nc4ccccc34)CC2)c1", "active"),
    ("Cc1ccc(Cl)cc1NC(=O)c1ccccc1OCC(=O)Nc1ccc(Cl)cc1", "inactive"),
    ("O=S(=O)(c1cccc2ccccc12)N1CCN(c2nc(-c3cccs3)nc3ccccc23)CC1", "active"),
]
